System: MCF-7
assay_procedure: Cancer cell proliferation assay as a single agent (cell viability)
Assay type: cell-based
condition: Homo sapiens, MCF7; MCF-7 breast adenocarcinoma, Rb Positive, 144H treatment
assay_metric: IC50 (nM)
Field format: number, assumed nM, no unit text.

# input IC50 for CC(C)N1CCOc2c(F)cc(-c3nc(Nc4ccc5[nH]nc(C6CCNCC6)c5c4)ncc3F)cc21 ?
# output 3440

# input Given the molecule CC(C)N1CCOc2c(F)cc(-c3nc(Nc4nc5cc(C6=CCNCC6)ccc5s4)ncc3F)cc21 , what is its reported IC50?
# output 80

---

tgt: CDK1 (cyclin B) (Homo sapiens)
Sequence (P06493 whole entry): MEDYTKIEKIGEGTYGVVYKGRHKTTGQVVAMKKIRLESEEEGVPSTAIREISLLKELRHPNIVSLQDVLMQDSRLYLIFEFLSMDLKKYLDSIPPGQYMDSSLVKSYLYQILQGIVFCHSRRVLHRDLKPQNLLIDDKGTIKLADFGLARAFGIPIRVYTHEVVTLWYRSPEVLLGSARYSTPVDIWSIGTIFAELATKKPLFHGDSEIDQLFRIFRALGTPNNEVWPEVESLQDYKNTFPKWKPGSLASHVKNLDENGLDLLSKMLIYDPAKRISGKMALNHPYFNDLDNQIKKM
Sequence (P14635 whole entry partner): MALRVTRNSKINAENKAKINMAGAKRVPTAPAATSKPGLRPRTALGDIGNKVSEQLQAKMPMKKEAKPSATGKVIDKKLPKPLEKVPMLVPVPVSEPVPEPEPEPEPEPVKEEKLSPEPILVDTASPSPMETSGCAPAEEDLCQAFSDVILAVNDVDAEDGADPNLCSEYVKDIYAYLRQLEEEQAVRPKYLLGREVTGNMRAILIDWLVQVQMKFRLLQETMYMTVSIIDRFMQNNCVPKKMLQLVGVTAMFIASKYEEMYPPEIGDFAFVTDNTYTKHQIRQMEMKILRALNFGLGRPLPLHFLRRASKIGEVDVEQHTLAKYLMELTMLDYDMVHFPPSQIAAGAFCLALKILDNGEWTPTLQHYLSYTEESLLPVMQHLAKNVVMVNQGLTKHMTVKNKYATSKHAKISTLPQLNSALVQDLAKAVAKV
assay_metric: pIC50
Reminder that pIC50 means the negative base-10 logarithm of the concentration expressed in mol/L.

# input compound: CC(C)N1CCOc2c(F)cc(-c3nc(Nc4ccc5[nH]nc(C6CCNCC6)c5c4)ncc3F)cc21 ; wanted: its pIC50
# output 8.15
